All values here come from patent US9273046B2.

I'd appreciate it if you could supply pIC50 values for the items below.
assayed_system: B-Raf (V600E) (Homo sapiens (Human), UniProt P15056, V600E)
Sequence (P15056 whole entry V600E): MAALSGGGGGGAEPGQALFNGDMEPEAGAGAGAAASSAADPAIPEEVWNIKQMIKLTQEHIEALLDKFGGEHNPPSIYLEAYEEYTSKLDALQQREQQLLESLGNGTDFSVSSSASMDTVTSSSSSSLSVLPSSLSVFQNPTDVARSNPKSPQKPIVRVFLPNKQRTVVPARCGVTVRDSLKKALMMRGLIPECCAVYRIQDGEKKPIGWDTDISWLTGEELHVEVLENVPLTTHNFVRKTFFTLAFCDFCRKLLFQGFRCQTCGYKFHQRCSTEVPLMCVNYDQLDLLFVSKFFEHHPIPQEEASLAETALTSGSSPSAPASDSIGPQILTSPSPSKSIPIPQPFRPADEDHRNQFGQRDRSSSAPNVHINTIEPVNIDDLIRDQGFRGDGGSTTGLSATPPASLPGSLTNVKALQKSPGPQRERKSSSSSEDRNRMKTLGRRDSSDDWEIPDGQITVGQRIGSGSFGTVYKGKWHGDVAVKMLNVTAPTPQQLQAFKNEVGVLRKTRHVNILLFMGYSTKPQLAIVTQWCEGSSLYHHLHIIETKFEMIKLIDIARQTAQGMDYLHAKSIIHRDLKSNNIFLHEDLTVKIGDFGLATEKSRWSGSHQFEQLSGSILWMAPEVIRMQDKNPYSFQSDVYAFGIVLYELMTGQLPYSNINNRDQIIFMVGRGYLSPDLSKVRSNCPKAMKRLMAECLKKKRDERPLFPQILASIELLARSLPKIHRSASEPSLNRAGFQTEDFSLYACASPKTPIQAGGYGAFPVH
assay_summary: Raf IC50 assay, time-resolved fluorescence energy transfer (TR-FRET), B-Raf
Format: biochemical
particulars: 0.0625 nM B-Raf, 0.1 mM ATP, GST-tagged MEK1 substrate, 60 min preincubation; read-out: B-Raf (V600E) IC50
Keep in mind that pIC50 stands for -log10 of concentration in molar terms.

Entry O=C1CCc2c(Oc3ccc4c(c3)C3C(O4)C3c3nc4cccc(F)c4[nH]3)ccnc2N1 (stereo not shown) , tested on B-Raf (V600E) (Homo sapiens (Human), UniProt P15056, V600E), has a reported pIC50 of 7.96

Lab entry: B-Raf (V600E) (Homo sapiens (Human), UniProt P15056, V600E) assay, molecule O=C1CCc2c(Oc3ccc4c(c3)C3C(O4)C3c3nc4ccc(O)cc4[nH]3)ccnc2N1 (racemic) , pIC50 = 8.60

# pIC50 measured on B-Raf (V600E) (Homo sapiens (Human), UniProt P15056, V600E) for item O=C1CCc2c(Oc3ccc4c(c3)C3C(O4)C3c3nc4ccc(F)cc4[nH]3)ccnc2N1 (stereo not shown) = 8.00

B-Raf (V600E) (Homo sapiens (Human), UniProt P15056, V600E) pIC50 of FC(F)(F)c1ccc2nc(C3C4Oc5ccc(Oc6ccnc7[nH]ccc67)cc5C43)[nH]c2c1 (racemic) is 6.28

Lab entry: B-Raf (V600E) (Homo sapiens (Human), UniProt P15056, V600E) assay, molecule O=C1CCc2c(Oc3ccc4c(c3)[C@@H]3[C@H](O4)[C@H]3c3nc4ccc(C(F)(F)F)cc4[nH]3)ccnc2N1 , pIC50 = 7.28

The observed pIC50 for O=C1CCc2c(Oc3ccc4c(c3)C3C(O4)C3c3nc(-c4ccccc4)no3)ccnc2N1 (racemic) when tested with B-Raf (V600E) (Homo sapiens (Human), UniProt P15056, V600E) stands at 8.49

// returns pIC50 for O=C1CCc2c(Oc3ccc4c(c3)C3C(O4)C3c3nc4ccc(Cl)cc4[nH]3)ccnc2N1 (stereo not shown) with B-Raf (V600E) (Homo sapiens (Human), UniProt P15056, V600E); value = 7.92
